Values from ChEMBL document CHEMBL5724914

Settings: human gut metagenome, 24 h, 2 µM; also: call rule not given here
experimental_endpoint: Bacterial Biotransformation

CN1CCC(=C2c3ccccc3CCc3cccnc32)CC1.O=C(O)/C=C\C(=O)O.O=C(O)/C=C\C(=O)O [AZATADINE MALEATE] :: Compound NOT metabolized
CCN(CC)CCNC(=O)c1cc(Cl)c(N)cc1OC [METOCLOPRAMIDE] :: Compound NOT metabolized
CN1C(=O)CC(C)(c2ccccc2)C1=O (stereo not given) [METHSUXIMIDE] :: Compound NOT metabolized
CCC(=O)NCC[C@@H]1CCc2ccc3c(c21)CCO3 :: Compound NOT metabolized

Quick one: Bacterial Biotransformation for OC(Cn1cncn1)(Cn1cncn1)c1ccc(F)cc1F ?
Compound NOT metabolized
